- methodNotes: In vivo pharmacokinetic test in mice
- Design: species or system male CD-1 mice
- assaySetup: male, CD-1, mouse, plasma, IV dose of 3 mg/kg, read-out: Area under the curve AUC0-last
metricName: AUC(0-t) (µM·h)

# molecule, val
measured = [
    ("C[C@H]1CNC(=O)c2cnn3ccc(nc23)N2OCC[C@@H]2c2cc(F)cnc2O1 [WX005B]", 10.5),
    ("C[C@@H]1COc2ncc(F)cc2[C@H]2CCON2c2ccn3ncc(c3n2)C(=O)N1 [WX004A]", 12.5),
    ("O=C1N[C@@H]2COC[C@@H]2Oc2ncc(F)cc2[C@H]2CCON2c2ccn3ncc1c3n2 [WX008A]", 18.2),
]

I: O=C1N[C@@H]2COCC[C@@H]2Oc2ncc(F)cc2[C@H]2CCON2c2ccn3ncc1c3n2 [WX010B]
II: O=C1NC2(COC2)COc2ncc(F)cc2[C@H]2CCON2c2ccn3ncc1c3n2 [WX006A]
Name the one with the greater AUC(0-t) value, either I or II as given. Label of pick, please. I
(I: 14 µM·h, II: 6.1 µM·h)

I: C[C@@H]1COc2ccc(F)cc2[C@H]2CCON2c2ccn3ncc(c3n2)C(=O)N1 [WX017A]
II: O=C1N[C@@H]2CCC[C@@H]2Oc2ncc(F)cc2[C@H]2CCON2c2ccn3ncc1c3n2 [WX007A]
Name the one with the greater AUC(0-t) value, either I or II as given. Label of pick, please. II

----------
- methodNotes: In vivo pharmacokinetic test in mice
- Set-up: species or system male CD-1 mice
- assaySetup: male, CD-1, mouse, plasma, PO dose of 10 mL/kg, read-out: Time of peak concentration Tmax
- Procedure: Experimental object: male CD-1 mice aged 7-9 weeks were used as the experimental animals, the LC/MS/MS method was used to determine the drug concentrations in plasma at different time points after single intravenous (IV) and intragastric (PO) administration of the compounds, in vivo pharmacokinetic behaviors of the compounds of the present disclosure in mice were studied, and pharmacokinetic characteristics thereof were evaluated. […]
metricName: Tmax (min)

Below: 5 compounds and their reported Tmax.
# compound, metricName, val
data = [
    ("O=C1NC2(COC2)COc2ncc(F)cc2[C@H]2CCON2c2ccn3ncc1c3n2 [WX006A]", "Tmax", 15),
    ("C[C@@H]1COc2ncc(F)cc2[C@H]2CCON2c2ccn3ncc(c3n2)C(=O)N1 [WX004A]", "Tmax", 30),
    ("O=C1N[C@@H]2COCC[C@@H]2Oc2ncc(F)cc2[C@H]2CCON2c2ccn3ncc1c3n2 [WX010B]", "Tmax", 30),
    ("O=C1N[C@@H]2CCC[C@@H]2Oc2ncc(F)cc2[C@H]2CCON2c2ccn3ncc1c3n2 [WX007A]", "Tmax", 22.8),
    ("C[C@H]1CNC(=O)c2cnn3ccc(nc23)N2OCC[C@@H]2c2cc(F)cnc2O1 [WX005B]", "Tmax", 22.8),
]

1: C[C@@H]1COc2ccc(F)cc2[C@H]2CCON2c2ccn3ncc(c3n2)C(=O)N1 [WX017A]
2: O=C1N[C@@H]2COC[C@@H]2Oc2ncc(F)cc2[C@H]2CCON2c2ccn3ncc1c3n2 [WX008A]
Identify the item whose Tmax is the smaller number: 1 or 2 Label of pick, please. 2

----------
# IC50 per entry for TrkA (Homo sapiens)
metricName: IC50 (nM)

# molecule, IC50, nM
records = [
    ("C[C@@H]1COc2ccc(F)cc2[C@H]2CCON2c2ccn3ncc(c3n2)C(=O)N1 [WX017A]", 13.4),
    ("CC(=O)N1CC[C@H]2NC(=O)c3cnn4ccc(nc34)N3OCC[C@@H]3c3cc(F)cnc3O[C@H]2C1 [WX014B]", 12.8),
]

----------
- targetOrTestSystem: TrkA-G595R (Homo sapiens, UniProt P04629, G595R)
- Sequence (P04629 33-796 G595R): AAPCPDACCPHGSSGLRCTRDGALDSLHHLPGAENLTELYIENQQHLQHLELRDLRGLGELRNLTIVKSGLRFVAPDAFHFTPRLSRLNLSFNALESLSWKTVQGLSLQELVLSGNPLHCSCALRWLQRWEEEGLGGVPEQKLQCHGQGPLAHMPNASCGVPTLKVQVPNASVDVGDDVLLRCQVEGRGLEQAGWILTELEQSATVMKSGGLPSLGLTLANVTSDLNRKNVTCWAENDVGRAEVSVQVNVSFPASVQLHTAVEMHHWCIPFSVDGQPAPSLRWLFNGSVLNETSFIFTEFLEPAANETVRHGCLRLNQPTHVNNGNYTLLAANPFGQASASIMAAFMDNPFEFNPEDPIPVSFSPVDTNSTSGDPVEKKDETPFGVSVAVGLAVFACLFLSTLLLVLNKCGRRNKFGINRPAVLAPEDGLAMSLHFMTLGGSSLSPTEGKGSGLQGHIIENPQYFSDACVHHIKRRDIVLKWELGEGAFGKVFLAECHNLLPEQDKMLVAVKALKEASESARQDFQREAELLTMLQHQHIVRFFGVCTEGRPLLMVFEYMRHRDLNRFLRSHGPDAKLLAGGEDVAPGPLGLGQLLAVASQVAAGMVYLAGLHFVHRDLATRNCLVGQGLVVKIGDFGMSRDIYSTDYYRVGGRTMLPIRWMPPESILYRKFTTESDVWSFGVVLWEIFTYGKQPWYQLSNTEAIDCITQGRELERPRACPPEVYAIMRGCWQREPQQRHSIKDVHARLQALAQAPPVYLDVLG
- methodNotes: Kinase inhibitory activity (33P-ATP filter binding, Reaction Biology Corp.)
- assaySetup: read-out: The half maximal inhibitory concentration IC50 on the kinases, TrkA-G595R
metricName: IC50

# compound, targetOrTestSystem, IC50
data = [
    ("O=C1NC2(COC2)COc2ncc(F)cc2[C@H]2CCON2c2ccn3ncc1c3n2 [WX006A]", "TrkA-G595R (Homo sapiens, UniProt P04629, G595R)", "0.00474 µM"),
]

Give the value of IC50 reported for the following: O=C1N[C@@H]2CCC[C@@H]2Oc2ncc(F)cc2[C@@H]2CCON2c2ccn3ncc1c3n2 [WX007B] > 1 µM

Give the value of IC50 reported for the following: O=C1NC2(COC2)COc2ncc(F)cc2[C@@H]2CCON2c2ccn3ncc1c3n2 [WX006B] > 1 µM

----------
- methodNotes: In vivo pharmacokinetic test in mice
- Set-up: species or system male CD-1 mice
- assaySetup: IV dose of 3 mg/kg
metricName: Apparent clearance Cl (mL/min/kg)

Below: 2 compounds and their reported Apparent clearance Cl.
# compound, val
measured = [
    ("O=C1NC2(COC2)COc2ncc(F)cc2[C@H]2CCON2c2ccn3ncc1c3n2 [WX006A]", 19.9),
    ("O=C1NC2(CC2)COc2ncc(F)cc2[C@H]2CCON2c2ccn3ncc1c3n2 [WX002A]", 7.2),
]

P: C[C@@H]1COc2ccc(F)cc2[C@H]2CCON2c2ccn3ncc(c3n2)C(=O)N1 [WX017A]
Q: O=C1N[C@@H]2COC[C@@H]2Oc2ncc(F)cc2[C@H]2CCON2c2ccn3ncc1c3n2 [WX008A]
R: C[C@H]1CNC(=O)c2cnn3ccc(nc23)N2OCC[C@@H]2c2cc(F)cnc2O1 [WX005B]
Let's sort these by Apparent clearance Cl, smallest first. Go ahead? Please reply with the labels ordered as requested. Many thanks. Q, R, P

----------
- targetOrTestSystem: TrkA (Homo sapiens, UniProt P04629)
- Sequence (P04629 33-796): as the sequence (P04629 33-796 G595R) above, with R563G counted along it
pIC50: −log10 of the molar value. Where a name gives a salt, the structure may show the parent alone.
metricName: pIC50

Below: 5 compounds and their reported pIC50.
# compound, pIC50
records = [
    ("O=C1N[C@@H]2CCC[C@@H]2Oc2ncc(F)cc2[C@@H]2CCON2c2ccn3ncc1c3n2 [WX007B]", 6.23),
    ("CCN1CC[C@H]2NC(=O)c3cnn4ccc(nc34)N3OCC[C@@H]3c3cc(F)cnc3O[C@H]2C1 [WX016A]", 7.48),
    ("C[C@H]1CNC(=O)c2cnn3ccc(nc23)N2OCC[C@@H]2c2cc(F)cnc2O1 [WX005B]", 7.88),
    ("O=C1N[C@@H]2COCC[C@@H]2Oc2ncc(F)cc2[C@H]2CCON2c2ccn3ncc1c3n2 [WX010B]", 8.51),
    ("O=C1N[C@@H]2CCC[C@@H]2Oc2ncc(F)cc2[C@H]2CCON2c2ccn3ncc1c3n2 [WX007A]", 8.55),
]

A: C[C@@H]1COc2ncc(F)cc2[C@H]2CCON2c2ccn3ncc(c3n2)C(=O)N1 [WX004A]
B: CC1CCc2ncc(F)cc2C2CCON2c2ccn3ncc(c3n2)C(=O)N1 (stereo not drawn) [WX001 hydrochloride]
C: O=C1NC2(CC2)COc2ncc(F)cc2C2CCON2c2ccn3ncc1c3n2 (stereo not drawn)
D: CN1CC[C@H]2NC(=O)c3cnn4ccc(nc34)N3OCC[C@@H]3c3cc(F)cnc3O[C@H]2C1 [WX011A]
E: O=C1N[C@@H]2CCNC[C@@H]2Oc2ncc(F)cc2[C@H]2CCON2c2ccn3ncc1c3n2 [WX013B]
Given 5 compounds, produce a descending ranking by pIC50. Please reply with the labels ordered as requested. Many thanks. C, A, D, E, B
(C: 8.36, A: 7.84, D: 7.47, E: 7.24, B: 6.75)

----------
- targetOrTestSystem: Ba/F3 SLC34A2-ROS1-WT stably transfected cell line (Homo sapiens)
- Construct: fused on or other part: O95436 (Sodium-dependent phosphate transport protein 2B)
- Sequence (P08922 whole entry, change not shown, the tested form may be a part): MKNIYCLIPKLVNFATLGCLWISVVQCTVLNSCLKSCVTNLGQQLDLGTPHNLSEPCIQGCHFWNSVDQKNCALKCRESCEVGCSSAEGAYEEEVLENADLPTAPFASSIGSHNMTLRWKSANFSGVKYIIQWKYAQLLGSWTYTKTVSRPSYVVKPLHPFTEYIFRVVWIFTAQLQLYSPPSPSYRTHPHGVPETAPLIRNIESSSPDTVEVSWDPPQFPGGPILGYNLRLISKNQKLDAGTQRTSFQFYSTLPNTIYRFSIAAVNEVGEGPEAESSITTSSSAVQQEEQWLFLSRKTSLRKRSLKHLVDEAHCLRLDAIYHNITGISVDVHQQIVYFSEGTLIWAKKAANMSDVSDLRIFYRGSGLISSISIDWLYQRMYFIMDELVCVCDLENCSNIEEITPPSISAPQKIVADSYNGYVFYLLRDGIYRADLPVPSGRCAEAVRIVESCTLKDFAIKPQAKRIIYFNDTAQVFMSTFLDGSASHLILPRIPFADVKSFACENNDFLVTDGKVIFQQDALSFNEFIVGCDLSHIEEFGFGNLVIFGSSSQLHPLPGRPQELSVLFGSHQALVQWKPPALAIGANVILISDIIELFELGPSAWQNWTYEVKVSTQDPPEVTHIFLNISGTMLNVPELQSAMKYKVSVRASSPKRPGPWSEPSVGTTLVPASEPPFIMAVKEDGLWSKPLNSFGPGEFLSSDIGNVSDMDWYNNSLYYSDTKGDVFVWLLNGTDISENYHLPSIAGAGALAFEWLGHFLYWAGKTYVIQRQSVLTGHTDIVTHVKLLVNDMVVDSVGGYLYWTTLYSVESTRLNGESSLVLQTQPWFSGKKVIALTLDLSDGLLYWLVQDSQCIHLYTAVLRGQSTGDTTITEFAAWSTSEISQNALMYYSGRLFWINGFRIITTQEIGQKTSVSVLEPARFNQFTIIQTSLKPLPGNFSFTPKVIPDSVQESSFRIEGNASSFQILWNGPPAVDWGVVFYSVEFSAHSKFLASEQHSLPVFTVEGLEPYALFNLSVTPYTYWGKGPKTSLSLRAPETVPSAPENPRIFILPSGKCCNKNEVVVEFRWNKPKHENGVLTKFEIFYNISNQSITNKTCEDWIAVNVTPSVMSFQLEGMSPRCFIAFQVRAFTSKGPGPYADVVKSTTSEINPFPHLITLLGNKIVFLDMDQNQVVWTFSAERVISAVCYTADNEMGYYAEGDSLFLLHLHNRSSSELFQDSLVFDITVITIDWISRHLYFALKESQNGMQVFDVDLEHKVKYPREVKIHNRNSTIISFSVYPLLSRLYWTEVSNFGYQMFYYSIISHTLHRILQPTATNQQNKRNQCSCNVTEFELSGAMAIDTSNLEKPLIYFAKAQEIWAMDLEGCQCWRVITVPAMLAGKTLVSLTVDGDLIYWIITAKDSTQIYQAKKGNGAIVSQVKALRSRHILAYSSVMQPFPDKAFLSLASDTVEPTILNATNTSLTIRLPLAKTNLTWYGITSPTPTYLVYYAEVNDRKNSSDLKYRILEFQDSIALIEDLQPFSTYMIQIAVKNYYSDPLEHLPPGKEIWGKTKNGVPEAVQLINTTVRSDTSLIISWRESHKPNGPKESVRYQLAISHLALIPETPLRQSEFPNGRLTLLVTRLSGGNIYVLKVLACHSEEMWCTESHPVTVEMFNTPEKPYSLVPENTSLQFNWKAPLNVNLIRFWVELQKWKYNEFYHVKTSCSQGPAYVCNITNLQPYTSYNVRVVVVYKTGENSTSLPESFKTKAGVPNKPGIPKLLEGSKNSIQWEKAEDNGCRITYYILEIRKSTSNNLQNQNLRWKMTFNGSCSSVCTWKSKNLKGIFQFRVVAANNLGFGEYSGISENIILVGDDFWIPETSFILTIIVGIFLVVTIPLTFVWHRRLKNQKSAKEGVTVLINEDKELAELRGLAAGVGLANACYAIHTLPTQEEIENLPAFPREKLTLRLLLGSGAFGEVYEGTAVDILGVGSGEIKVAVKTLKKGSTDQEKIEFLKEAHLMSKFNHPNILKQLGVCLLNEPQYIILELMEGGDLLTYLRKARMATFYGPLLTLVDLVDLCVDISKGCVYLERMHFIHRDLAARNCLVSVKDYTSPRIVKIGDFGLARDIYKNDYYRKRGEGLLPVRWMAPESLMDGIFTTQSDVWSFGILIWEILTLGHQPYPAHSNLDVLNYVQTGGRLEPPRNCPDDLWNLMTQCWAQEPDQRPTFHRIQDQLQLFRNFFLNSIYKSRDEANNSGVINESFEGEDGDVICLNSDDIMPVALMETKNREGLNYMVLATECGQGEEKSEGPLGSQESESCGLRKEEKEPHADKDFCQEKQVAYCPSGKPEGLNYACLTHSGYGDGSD
- methodNotes: Cell proliferation inhibition (CellTiter-Glo)
- Format: cell-based
- assaySetup: 72 hours, read-out: The half maximal inhibitory concentration IC50 against cells, Ba/F3 SLC34A2-ROS1-WT
metricName: GI50 (nM)

# compound, targetOrTestSystem, metricName, measureUnit, val
rows = [
    ("O=C1N[C@@H]2COCC[C@@H]2Oc2ncc(F)cc2[C@H]2CCON2c2ccn3ncc1c3n2 [WX010B]", "Ba/F3 SLC34A2-ROS1-WT stably transfected cell line (Homo sapiens)", "GI50", "nM", 10.4),
]

a: C[C@H]1CNC(=O)c2cnn3ccc(nc23)N2OCC[C@@H]2c2cc(F)cnc2O1 [WX005B]
b: O=C1N[C@@H]2CCC[C@@H]2Oc2ncc(F)cc2[C@H]2CCON2c2ccn3ncc1c3n2 [WX007A]
c: O=C1NC2(CC2)COc2ncc(F)cc2[C@H]2CCON2c2ccn3ncc1c3n2 [WX002A]
d: O=C1N[C@@H]2COC[C@@H]2Oc2ncc(F)cc2[C@H]2CCON2c2ccn3ncc1c3n2 [WX008A]
Let's sort these by GI50, smallest first. Go ahead? Please reply with the labels ordered as requested. Many thanks. c, d, b, a
